The measured values listed here are drawn from the RNAGym collection of RNA variant scans (doi:10.1021/acssynbio.7b00057).

B1: Pistol ribozyme (parent)
chain: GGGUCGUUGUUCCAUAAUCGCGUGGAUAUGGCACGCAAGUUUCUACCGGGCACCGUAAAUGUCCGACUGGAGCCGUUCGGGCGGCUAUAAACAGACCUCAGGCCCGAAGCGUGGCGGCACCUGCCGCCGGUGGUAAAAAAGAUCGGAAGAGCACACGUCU

Variants of: B1
Assay: aptazyme ON/OFF ratio, guanine; higher = stronger switching; co-transcriptional cleavage with and without guanine
Quantity Name: aptazyme ON/OFF ratio

U7C G9C U10C U11A C12G C13G ... 1.41
U7C U8A U10G U11G C12G C13U ... 1.25
U7G U8C G9C U10G U11G C12U C13U ... 1.12
U7G G9C U10A U11A C12U ... 1.65
U7C U8C G9U ... 2.34
U7G U10A C12A C13U ... 1.18
U7A U8C G9C U10A U11C C12A C13U ... 1.14
U7A U8A G9U U10C U11G C13G ... 1.17
U7G U8G G9C U11A C13U ... 1.36
U8G U10C C12A C13A ... 1.09
U7G U8G G9U U10C U11G C13U ... 1.28
U7C U8C G9C U10A U11G C12A C13U ... 1.14
U7A G9C U10A U11C C12G C13U ... 1.17
U7C U10G U11C C12A C13A ... 1.21
U7G U8C U10A U11A C12U ... 1.43
U7A U8G G9C U10C U11G ... 1.26
U7A U10G U11A C13A ... 1.11
U7C U8G C12U C13U ... 1.3
U8A G9U U10A C12U ... 1.4
U7A U10C C12A C13A ... 1.35
U8G G9C U10A U11A C12U C13A ... 1.14
U7A U8A U11C C12G ... 1.17
U8C U10C C12A ... 1.34
U7G U8C G9A U11G C12G ... 1.14
U8A G9U U10C U11C C12A C13G ... 1.05
U7C U8C G9C U11C C13U ... 1.24
U7A U8G G9C U10A U11C C12G ... 1.22
U8A U11C C12U C13A ... 1.38
U7A U8C U10A U11C C12U C13A ... 1.07
U7A G9U U10G U11C C13A ... 1.1
